We use 40 °C as the dividing line for flash point: on or above the line is true, below is false.

Would you please look over these solved cases?
Threshold query (flash point >= 40 °C) on `CCCCC(=O)O`
true

Threshold query (flash point >= 40 °C) on `OCCOCCOCCO`
true

Threshold query (flash point >= 40 °C) on `CC[N+](=O)[O-]`
false

Threshold query (flash point >= 40 °C) on CS(C)=O [Dimethyl sulphoxide]
true

Consider the additional molecule presented here.
Threshold query (flash point >= 40 °C) on `O=CC=Cc1ccccc1`
true

###

Examples of compounds with documented flash point follow.
# answer = value followed by unit

Tell me the measured flash point of CCCC(C)O (stereo not given) , please.
35.00 °C

Continuing:
Tell me the measured flash point of CC(Oc1ccc(Cl)cc1Cl)C(=O)O (stereo not given) , please.
204.00 °C

Tell me the measured flash point of CC(=O)OC(C)C [propan-2-yl acetate] , please.
2.00 °C

Tell me the measured flash point of `Nc1ccc(Nc2ccccc2)cc1` , please.
193.00 °C

Tell me the measured flash point of `C1CN(SSN2CCOCC2)CCO1` , please.
121.00 °C
